FYI, the data here is from PubChem BioAssay AID434973.

- ASSAYED_TARGET: Sentrin-specific protease 7 (Homo sapiens)
- EXPERIMENTAL_DETAILS: SENP7 protease inhibitors, primary screen, biochemical, luminescence, uHTS (AID 434973);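 further: plate controls were DMSO with enzyme for no effect and no enzyme buffer wells for full effect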
- CONDITIONS: recombinant SENP7, Z-RLRGG-aminoluciferin luminescence, 40 min; at 5 µM
The campaign covered roughly 330,000 compounds. About 4,900 (1.5%) were called active.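 How the source made its calls: active means inhibition above about 50% at the single test dose (limit read from the data); inactive means the rest.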 For the sample, actives were picked, then their nearest neighbours and some compounds at random.
Give your call using only these classes: active, inactive

Worked cases, answers included:
Problem: Could you kindly confirm the outcome this assay logged for CCCC1CC(C)(C(=O)Cn2[nH]c(=O)ccc2=O)OC1=O (stereo not given) ?
Solution: inactive

Problem: Could you kindly confirm the outcome this assay logged for O=C(/C=C/c1ccc2c(c1)OCCO2)c1ccc(O)cc1 ?
Solution: active

Problem: Could you kindly confirm the outcome this assay logged for C=CCSc1nnc(NC(=O)c2ccc(NC(C)=O)cc2)s1 ?
Solution: inactive

Problem: Could you kindly confirm the outcome this assay logged for CCC1CCCCN1C(=S)Nc1ccc(S(=O)(=O)Nc2ncccn2)cc1 (stereo not given) ?
Solution: inactive

New cases:
Problem: Could you kindly confirm the outcome this assay logged for CCOc1ccc(-n2cnnn2)cc1S(=O)(=O)N1CCC(C)CC1C (stereo not given) ?
Solution: inactive

Problem: Could you kindly confirm the outcome this assay logged for Clc1ccc(Nc2nc(-c3cccs3)cs2)nc1 ?
Solution: inactive

Problem: Could you kindly confirm the outcome this assay logged for CCSc1nnc(NC(=O)c2ccc(C)cc2)s1 ?
Solution: active

Problem: Could you kindly confirm the outcome this assay logged for Clc1ccc(-c2csc(-c3ccncc3)n2)cc1 ?
Solution: inactive

====

Listing of entries alongside the reported inhibition.
- ASSAYED_TARGET: Sentrin-specific protease 7 (Homo sapiens) (UniProt Q9BQF6)
- EXPERIMENTAL_DETAILS: SENP7 protease inhibitors, primary screen, biochemical, luminescence, uHTS (AID 434973);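 further: plate controls were DMSO with enzyme for no effect and no enzyme buffer wells for full effect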
- CONDITIONS: recombinant SENP7, Z-RLRGG-aminoluciferin luminescence, 40 min; at 5 µM; stronger effect = higher value
The whole screen tested about 330,000 compounds, of which about 4,900 (1.5%) were called active. Many of the other results were omitted from the sample, so actives are more common in it than they were.
Numbers only here, please. The scale is %.

Kindly note the recorded inhibition for O=C(Cn1ccc([N+](=O)[O-])n1)NCc1cccs1 , which is 71.3

Kindly note the recorded inhibition for O=C(NC(=O)c1ccccc1)Nc1ccccc1O , which is 55.8

Kindly note the recorded inhibition for CC(=O)OCc1cc(=O)n(C)c(=O)n1C , which is 6.2

Kindly note the recorded inhibition for O=C(NCCC1=CCCCC1)c1ccc(-n2cncn2)cc1 , which is -9.22

Could you now consider this next compound?
Kindly note the recorded inhibition for COc1ccc(N2CCN(C(=O)c3cn(C)c4ccc(S(=O)(=O)N5CCOCC5)cc4c3=O)CC2)cc1 , which is 8.09

====

- ASSAYED_TARGET: Sentrin-specific protease 7 (Homo sapiens)
- EXPERIMENTAL_DETAILS: SENP7 protease inhibitors, primary screen, biochemical, luminescence, uHTS (AID 434973);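 further: plate controls were DMSO with enzyme for no effect and no enzyme buffer wells for full effect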
- CONDITIONS: recombinant SENP7, Z-RLRGG-aminoluciferin luminescence, 40 min; at 5 µM
Hit rate of the full screen: of about 330,000 compounds, about 4,900 (1.5%) were called active.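 The calls were made as follows: active = inhibition above about 50% at the single test dose (limit read from the data); inactive = the rest.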 The entries come from a sample that favours actives as a whole.
Give your call using only these classes: class 1 (active), class 0 (inactive)

Problem: Could you kindly confirm the outcome this assay logged for CN(C)C(=O)Cn1c(=O)n(S(=O)(=O)c2ccccc2)c2ccccc21 ?
Solution: class 0

New cases:
Problem: Could you kindly confirm the outcome this assay logged for N/C(=N\OC(=O)c1cc(-c2ccccc2)nc2ccccc12)c1ccncc1 ?
Solution: class 0

Problem: Could you kindly confirm the outcome this assay logged for Cc1[nH]n(C(N)=S)c(=O)c1N=Nc1ccc(Cl)cc1Cl ?
Solution: class 1
